These measurements were taken from patent US20220096649A1.

Entries and their measured Kd follow.
- targetOrTestSystem: SIRP-α human v1 (human) (UniProt P78324)
- Sequence (P78324 31-149): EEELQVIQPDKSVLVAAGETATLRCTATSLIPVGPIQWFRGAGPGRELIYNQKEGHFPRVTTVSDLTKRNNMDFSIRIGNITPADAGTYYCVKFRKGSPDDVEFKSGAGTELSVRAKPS
- assayProcedure: SPR, antibody on GLC chip, SIRP as analyte
Your answer should be a plain number; it is taken to be in nM.

binder | resultUnit | Kd
Anti-SIRP-α antibody 136, light chain Mut_S12T, heavy chain Mut (antibody, V domains shown) VH: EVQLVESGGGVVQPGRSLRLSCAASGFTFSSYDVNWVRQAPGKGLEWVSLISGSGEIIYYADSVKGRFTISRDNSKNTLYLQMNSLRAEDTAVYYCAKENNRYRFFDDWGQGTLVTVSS VL: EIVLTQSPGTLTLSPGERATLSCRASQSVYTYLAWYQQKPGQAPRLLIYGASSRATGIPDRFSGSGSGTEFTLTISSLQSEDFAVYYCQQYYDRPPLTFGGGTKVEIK | nM | 4.9

Could you now look at the following binder, please?
Problem: Given the binder Hum8/AB21_HC_Mutall (antibody, V domains shown) VH: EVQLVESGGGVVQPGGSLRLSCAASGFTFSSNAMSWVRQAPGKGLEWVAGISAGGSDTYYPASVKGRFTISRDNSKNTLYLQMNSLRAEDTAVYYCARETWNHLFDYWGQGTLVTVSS VL: SYELTQPPSVSVSPGQTARITCSGGAYSSYYYAWYQQKPGQAPVLVIYSDSKRPSGIPERFSGSSSGTTVTLTISGVQAEDEADYYCGGYDQSSYTNPFGGGTKLTVL , what is its reported Kd?
Solution: 0.02
